# Test description: Equilibrium surface tension, Wilhelmy plate method (CMC, γcmc, Amin and derived quantities)
# Assay type: physicochemical
# Conditions: T = 25 °C
Measurement label: C20 (mM)
One number for each entry, in mM.

{"Compound": "CCCCCCCCCCCCOC(=O)[C@H]1O[C@H](OC)[C@H](O)[C@@H](O)[C@@H]1O", "C20 [mM]": 0.004}

For every item below, please supply its C20.
1. CCCCCCCCO[C@H]1O[C@H](CO)[C@H](O)[C@H](O)[C@H]1O [Molecule C8αGal, Octyl α-D-galactopyranoside, reference compound]
2. CCCCCCOC(=O)[C@H]1O[C@H](OC)[C@H](O)[C@@H](O)[C@@H]1O

RESULT:
[3.8, 5.9]
